# tested on: TAS2R43 (Homo sapiens, UniProt P59537)
# Sequence (P59537 1-309): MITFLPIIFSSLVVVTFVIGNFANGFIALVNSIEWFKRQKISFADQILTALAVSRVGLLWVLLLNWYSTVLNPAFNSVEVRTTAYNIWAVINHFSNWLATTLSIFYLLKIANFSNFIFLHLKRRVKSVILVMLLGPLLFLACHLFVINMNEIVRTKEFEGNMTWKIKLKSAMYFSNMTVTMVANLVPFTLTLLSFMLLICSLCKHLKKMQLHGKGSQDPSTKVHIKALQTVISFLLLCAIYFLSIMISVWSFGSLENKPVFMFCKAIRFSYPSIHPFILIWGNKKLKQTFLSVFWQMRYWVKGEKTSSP
# measurement description: Fluo-4 calcium mobilization assay (FLIPR), stable inducible cells
# Type: cell-based
# assay conditions: read-out: TAS2R43 / EC50-conc.
observable: pEC50
One number for each entry, as −log10 of the molar value.

Task: If you can, please state the reported pEC50 value of C=C1C(=O)O[C@@H]2[C@H]3C(CO)=CC(=O)C3=C(C)C[C@H](O)[C@@H]12 .
Result: 4.83
